tested on: KM20L2 colon; assay: NCI tumour cell line growth inhibition, 48 h
property-name: TGI

See these solved cases before continuing.
Problem: Which measured TGI value corresponds to COC(=O)c1ccc(Cl)cc1NC(=O)C1CCCCC1 ?
Solution: > 100 µM

Problem: Same question, CCOC(=O)c1ccc(NC(=O)SCCC(=O)O)cc1 this time
Solution: > 100 µM

***
Problem: Which measured TGI value corresponds to CC(C)(C)OC(=O)NC1CCC(C(C)(C)C)CC1 (stereo unspecified) ?
Solution: > 100 µM

Problem: Same question, COc1ccc2oc(C(=O)O)c3c2c1CCC3 this time
Solution: > 100 µM

Problem: Same question, C[n+]1ccc(-c2c3nc(c(-c4cc[n+](C)cc4)c4ccc([n-]4)c(-c4cc[n+](C)cc4)c4nc(c(-c5cc[n+](C)cc5)c5ccc2[n-]5)C=C4)C=C3)cc1.[I-].[Zn+2] this time
Solution: > 100 µM

Problem: Same question, NCCN1C(=O)C2C3c4ccccc4C(c4ccccc43)C2C1=O (stereo unspecified) this time
Solution: > 100 µM

Problem: Same question, COc1cc(/C=C\c2cccnc2)cc(OC)c1OC this time
Solution: > 100 µM

Problem: Same question, O=C(NC1C2CC3CC(C2)CC1C3)c1cc(/C=C/c2ccccc2)[nH]c(=S)n1 (stereo unspecified) this time
Solution: > 100 µM

Problem: Same question, CC1OC(OC2C(CO)OC(O[C@H]3CC[C@@]4(C)C(=CC[C@H]5[C@@H]6C[C@@H]7O[C@]8(CC[C@@H](C)CN8)[C@@H](C)[C@@H]7[C@@]6(C)CC[C@@H]54)C3)C(O)C2O)C(O)C(O)C1O (stereo partly specified) this time
Solution: > 100 µM

Problem: Same question, OC1C2CCC1C1C3C=CC(C3)C21 (stereo unspecified) this time
Solution: > 100 µM

Problem: Same question, N#C/C(=C/Sc1ccccc1)C(=O)O this time
Solution: 91.2 µM

Problem: Same question, CC(C)(C)OC(=O)NC(CO)c1cccc(OCc2ccccc2)c1 (stereo unspecified) this time
Solution: > 100 µM

Problem: Same question, COc1ccc2nc3ccccc3c(NCCCN(C)CCCl)c2c1 this time
Solution: 2.5 µM

Problem: Same question, COc1cc2c(cc1OC)C(=O)Cc1ccc(OC)c(OC)c1CN(C)CC2 this time
Solution: > 100 µM

Problem: Same question, C=C1C(=O)OC2CC1CCC1(C)OC1CCC(C)=CCCC2(C)O (stereo unspecified) this time
Solution: 8.58 µM

Problem: Same question, COc1cc(O)c2c(c1)C(=O)c1cc3c(c(O)c1C2=O)C(OC1OC(C)C(O)C(O)C1OC)C(OC)C(C)(O)C3=O (stereo unspecified) this time
Solution: 6 µM

Problem: Same question, O=C1C2CN(Cc3ccccc3)CC1CN(CC1CC1)C2 this time
Solution: > 100 µM

Problem: Same question, CC[C@@H]1C[C@H]2CC3c4[nH]c5ccc(O)cc5c4CCN(C2)C31 this time
Solution: > 100 µM

Problem: Same question, Cc1nc2ccccc2c(=O)n1NC(=S)Nc1ccc(Cl)cc1[N+](=O)[O-] this time
Solution: > 100 µM

Problem: Same question, CSCCOC(=O)C(=[N+]=[N-])c1ccc([N+](=O)[O-])cc1 this time
Solution: > 100 µM

Problem: Same question, CCOc1ccccc1NC(=O)CCc1n[nH]c(=S)o1 this time
Solution: > 100 µM

----------
Listed here: items and their measured TGI.
test system: MALME-3M melanoma; assay: NCI tumour cell line growth inhibition, 48 h

See these solved cases before continuing.
Problem: Observed TGI on MALME-3M melanoma for COC(=O)c1c2c(cc3c1CC1(Cc4cc5c(cc4C1=O)CCC5)C3)CCC2 (stereo not given) , please.
Solution: > 100 µM

Problem: Same question, COc1cc(/C=C\c2cccnc2)cc(OC)c1OC this time
Solution: > 100 µM

Problem: Same question, N#CC1=C(N)NC(=S)NC12Nc1ccccc1N2 this time
Solution: 69.2 µM

***
Problem: Observed TGI on MALME-3M melanoma for Cc1cc(-c2nc3ccc(F)cc3s2)ccc1N , please.
Solution: > 100 µM

Problem: Same question, COc1ccc2c(ccc3c(COC(=O)NC(C)C)c(COC(=O)NC(C)C)n(C)c32)c1 this time
Solution: 12.2 µM

----------
system: RPMI-8226 leukemia; assay: NCI tumour cell line growth inhibition, 48 h; in the data active means GI50 below about 0.43 µM; inactive means the rest
Select the correct class. Options are T = active, F = inactive and nothing else.

Look over these answered cases.
Problem: Recorded test call requested for CCS(=O)(=O)Nc1cccc(Nc2c3cccc(C)c3nc3c(C)cccc23)c1OC
Solution: F

Problem: Same question, C[C@H]1[C@H]2[C@H]3CC[C@@H]4[C@@]5(C)C/C(=C/c6cccnc6)C(=O)C(C)(C)[C@@H]5CC[C@@]4(C)[C@]3(C)CC[C@]23CO[C@]1(C)[C@@H](C(=O)/C=C\c1cccnc1)C3 this time
Solution: T

Problem: Same question, O=S(=O)(Nc1cc(Cl)ccc1Cl)c1ccc(-c2cnc(C3CC3)o2)cc1 this time
Solution: F

***
Problem: Recorded test call requested for CCC[CH2][Sn]1([CH2]CCC)[O]C(=O)c2ccc(C)cc2[O]1
Solution: T

----------
Listed here: items and their measured TGI.
tested on: XF 498 CNS; experiment: NCI tumour cell line growth inhibition, 48 h

Problem: Which measured TGI value corresponds to COc1ccccc1/C=C1\CCC(CCN2CCOCC2)C1=O (stereo unspecified) ?
Solution: > 100 µM

***
Problem: Which measured TGI value corresponds to O=C1CC(O)(c2ccccc2)C(c2ccccc2)=C1c1ccccc1 (stereo unspecified) ?
Solution: 73.5 µM

Problem: Same question, O=C1OC2CC=CC1C2 (stereo unspecified) this time
Solution: > 100 µM

Problem: Same question, N#C/C(=C/Sc1ccccc1)C(=O)O this time
Solution: > 100 µM

Problem: Same question, CC[C@@H]1C[C@H]2CC3c4[nH]c5ccc(O)cc5c4CCN(C2)C31 this time
Solution: > 100 µM

Problem: Same question, CCOP(=O)(OCC)C(C(=O)OC)C(=O)C(=O)Nc1c(C)cc(Br)cc1C (stereo unspecified) this time
Solution: > 100 µM

Problem: Same question, CC(C)N1CN(C(C(=O)N[C@@H]2C(=O)N3C2SC(C)(C)C3C(=O)O)c2ccc(O)cc2)CSC1=S (stereo partly specified) this time
Solution: > 100 µM

Problem: Same question, CC1=C[P+](Cc2ccccc2)(c2ccccc2)CC1 (stereo unspecified) this time
Solution: 78.2 µM

Problem: Same question, CC(C)(C)OC(=O)NC(CO)c1cccc(OCc2ccccc2)c1 (stereo unspecified) this time
Solution: > 100 µM

Problem: Same question, CNC(=O)c1cccc2c(Nc3ccc(NS(C)(=O)=O)cc3OC)c3cccc(C)c3nc12 this time
Solution: 3.25 µM

Problem: Same question, CCOc1ccc(NC(=O)C2=C(C)NC(C)=C(C(=O)Nc3ccc(OCC)cc3)C2c2ccccc2)cc1 this time
Solution: > 100 µM

----------
tested on: K-562 leukemia; assay: NCI tumour cell line growth inhibition, 48 h
Listed here: items and their measured TGI.

Problem: Which measured TGI value corresponds to O=C(COc1ccc(Cl)c(Cl)c1)N(Cc1ccccc1)Cc1ccc[n+](Cc2ccc(Cl)cc2S(=O)(=O)F)c1 ?
Solution: > 100 µM

Problem: Same question, COc1c(C)cc2c(c1O)C1NC(C2)[C@H](O)N2C3COC(=O)[C@@]4(CS[C@@H](c5c(OC(C)=O)c(C)c6c(c53)OCO6)C12)NCCC1=C4NC2C=CC=CC12 (some centres undefined) this time
Solution: 0.0202 µM

Problem: Same question, O=c1oc2ccc(-n3c(=O)c4ccccc4c4ccccc4c3=O)cc2c2ccccc12 this time
Solution: > 100 µM

Problem: Same question, CC(C)SC(NC(=O)C1C(C)(C)CCC1(C)C)C(=O)O (centres undefined) this time
Solution: > 100 µM

Problem: Same question, COC(=O)c1c2c(cc3c1CC1(Cc4cc5c(cc4C1=O)CCC5)C3)CCC2 (centres undefined) this time
Solution: > 100 µM

***
Problem: Which measured TGI value corresponds to CCOC(=O)C(NCc1cccc(C(F)(F)F)c1)(NC(=O)CC)C(F)(F)F (centres undefined) ?
Solution: > 100 µM

----------
test system: IGROV1 ovarian; assay: NCI tumour cell line growth inhibition, 48 h; in the data active means GI50 below about 0.43 µM; inactive means the rest
Select the correct class. Options are active, inactive and nothing else.

Look over these answered cases.
Problem: Recorded test call requested for CCOC(=O)[C@@H](C)C[C@H](Cc1ccccc1)NC(=O)c1csc([C@@H](C[C@H](C(C)C)N(C)C(=O)[C@H](CC)NC(=O)[C@H]2CCCCN2C)OC(C)=O)n1
Solution: active

Problem: Same question, COc1ccc(-c2nc(N3CCN(C(=O)C4CCCCC4)CC3)c3c4c(sc3n2)CCCC4)cc1 this time
Solution: inactive

Problem: Same question, C[n+]1ccc(-c2c3nc(c(-c4cc[n+](C)cc4)c4ccc([n-]4)c(-c4cc[n+](C)cc4)c4nc(c(-c5cc[n+](C)cc5)c5ccc2[n-]5)C=C4)C=C3)cc1.[I-].[Zn+2] this time
Solution: inactive

***
Problem: Recorded test call requested for CCCCCCCCCCCCOC1C(C(CC(=O)N2CCN(c3cccc(C(F)(F)F)c3)CC2)NS(=O)(=O)c2cc(Cl)cc(Cl)c2)OC2OC(C)(C)OC21 (stereo unspecified)
Solution: inactive

Problem: Same question, CCC[CH2][Sn]1([CH2]CCC)[O]C(=O)c2ccc(C)cc2[O]1 this time
Solution: inactive

Problem: Same question, CC[C@@]1(O)C(=O)OCc2c1cc1n(c2=O)Cc2c-1nc1cc3c(cc1c2C)OCO3 this time
Solution: active

Problem: Same question, CCN(CC)CCCC(C)N=c1cc(Nc2cc(=NC(C)CCCN(CC)CC)c3cc(OC)ccc3o2)oc2ccc(OC)cc12 (stereo unspecified) this time
Solution: inactive

Problem: Same question, COc1ccc(-c2cc(-c3ccc(O)cc3)nc3n[nH]c(N)c23)cc1 this time
Solution: inactive

Problem: Same question, O=C1c2ccccc2-c2c1c1c(O)cccc1n2-c1ccccc1 this time
Solution: inactive

Problem: Same question, CN1CC(CNC(=O)OCc2ccccc2)CC2c3cccc4c3c(cn4C)CC21 (stereo unspecified) this time
Solution: inactive

Problem: Same question, CC(=O)[C@@]1(O)[C@H](C)C[C@H]2[C@@H]3C=C(C)C4=Cc5c(cnn5-c5ccccc5)C[C@]4(C)[C@H]3[C@@H](O)C[C@@]21C this time
Solution: inactive

Problem: Same question, O=S(=O)(Nc1cc(Cl)ccc1Cl)c1ccc(-c2cnc(C3CC3)o2)cc1 this time
Solution: inactive

Problem: Same question, COc1cnc2c(c1)C(=O)c1c-2n(CCCNC(C)C)c(=O)c2cc(F)ccc12 this time
Solution: active

Problem: Same question, CN(C)CCOC(c1ccccc1)c1ccccc1 this time
Solution: inactive

Problem: Same question, CCCCCCc1nc2nc(Cl)c(Cl)nc2[nH]1 this time
Solution: inactive

Problem: Same question, N#CS.N=C=S.N=C=S.[Cu+2].[NH2-].[NH2-].[NH2-].[NH2-].c1ccc2ncccc2c1 this time
Solution: inactive
